Recorded MIC values for a group of compounds are listed next.
# System: E. coli ATCC 25922 (AECO001)
# protocol_description: MIC, CLSI broth microdilution
# Format: cell-based
# details: Escherichia coli; Table 1; AECO001 is ATCC25922; read-out: MIC AECO001
experimental_readout: MIC

* CN[C@@H]1[C@@H](O)[C@@H](O[C@@H]2[C@@H](O)[C@H](O[C@H]3OC(CN)=CC[C@H]3NC(=N)N)[C@@H](N)C[C@H]2NC(=O)[C@@H](O)CCN)OC[C@]1(C)O | < 1 µg/mL
* CN[C@@H]1[C@@H](O)[C@@H](O[C@@H]2[C@@H](O)[C@H](O[C@H]3OC(CNCCO)=CC[C@H]3N)[C@@H](N)C[C@H]2NC(=O)[C@@H](O)CCN)OC[C@]1(C)O | < 1 µg/mL
* CN[C@@H]1[C@@H](O)[C@@H](O[C@@H]2[C@@H](O)[C@H](O[C@H]3OC(CNCCO)=CC[C@H]3N)[C@@H](N)C[C@H]2NC(=O)[C@@H](O)CN)OC[C@]1(C)O | < 1 µg/mL

* * *

# Test system: E. coli ATCC 25922 (AECO001)
# protocol_description: MIC, CLSI broth microdilution
# Type: cell-based
# details: Escherichia coli; Table 1; AECO001 is ATCC25922; read-out: MIC AECO001
# Protocol: Minimum inhibitory concentrations (MIC) were determined by reference Clinical and Laboratory Standards Institute (CLSI) broth microdilution methods per M7-A7 [2006]. Quality control ranges utilizing E. coli ATCC 25922, P. aeruginosa ATCC 27853 and S. aureus ATCC 29213, and interpretive criteria for comparator agents were as published in CLSI M100-S17 [2007]. Briefly, serial two-fold dilutions of the test compounds were prepared at 2× concentration in Mueller Hinton Broth. […]
experimental_readout: MIC

- CN[C@@H]1[C@@H](O)[C@@H](O[C@@H]2[C@@H](O)[C@H](O[C@H]3OC(CNCCCN)=CC[C@H]3N)[C@@H](N)C[C@H]2NC(=O)C2(O)CNC2)OC[C@]1(C)O: < 1 µg/mL
- CN[C@@H]1[C@@H](O)[C@@H](O[C@@H]2[C@@H](O)[C@H](O[C@H]3OC(CNCC(O)CN)=CC[C@H]3N)[C@@H](N)C[C@H]2NC(=O)[C@@H](O)CN)OC[C@]1(C)O (some centres unmarked): 1 to 16 µg/mL
- CN[C@@H]1[C@@H](O)[C@@H](O[C@@H]2[C@@H](O)[C@H](O[C@H]3OC(CNCCCN)=CC[C@H]3N)[C@@H](N)C[C@H]2NC(=O)[C@@H](O)CN)OC[C@]1(C)O: < 1 µg/mL
- CN[C@@H]1[C@@H](O)[C@@H](O[C@@H]2[C@@H](O)[C@H](O[C@H]3OC(CN)=CC[C@H]3NC3CNC3)[C@@H](N)C[C@H]2NC(=O)[C@@H](O)CCN)OC[C@]1(C)O: < 1 µg/mL
- CN[C@@H]1[C@@H](O)[C@@H](O[C@@H]2[C@@H](O)[C@H](O[C@H]3OC(CNCC4CCNCC4)=CC[C@H]3N)[C@@H](N)C[C@H]2NC(=O)[C@@H](O)CN)OC[C@]1(C)O: < 1 µg/mL

* * *

Examples of compounds with documented MIC AECO001 follow.
# Tested on: E. coli ATCC 25922 (AECO001)
# protocol_description: MIC, CLSI broth microdilution
# Format: cell-based
# details: Table 3; ATCC25922
experimental_readout: MIC AECO001 (µg/mL)

- CN[C@@H]1[C@@H](O)[C@@H](O[C@@H]2[C@@H](O)[C@H](O[C@H]3OC(CNCCCN)=CC[C@H]3N)[C@@H](N)C[C@H]2NC(=O)[C@@H](O)CCN)OC[C@]1(C)O: 1
- CN[C@@H]1[C@@H](O)[C@@H](O[C@@H]2C(O)[C@H](O[C@H]3OC(CNCC4CCNCC4)=CC[C@H]3N)[C@@H](N)C[C@H]2N)OC[C@]1(C)O (stereo partly shown) [Mono-substituted Compound 3, reference compound]: 0.5
- CN[C@@H]1C(O)[C@@H](O[C@@H]2[C@@H](O)[C@H](OC3OC(CN)=CC[C@H]3N)[C@@H](N)C[C@H]2NC(=O)[C@@H](O)CN)OC[C@]1(C)O (stereo partly shown) [Mono-substituted Compound 5, reference compound]: 0.5
- CNCC1=CC[C@@H](N)[C@@H](O[C@H]2[C@H](O)[C@@H](O[C@H]3OC[C@](C)(O)[C@H](NC)[C@H]3O)[C@H](NC(=O)C3(O)CNC3)C[C@@H]2N)O1: 1
- CN[C@@H]1C(O)[C@@H](O[C@@H]2[C@@H](O)[C@H](OC3OC(CN)=CC[C@H]3N)[C@@H](N)C[C@H]2NC(=O)C2(O)CNC2)OC[C@]1(C)O (stereo partly shown) [Mono-substituted Compound 7, reference compound]: 1
- CN[C@@H]1[C@@H](O)[C@@H](O[C@@H]2[C@@H](O)[C@H](O[C@H]3OC(CN)=CC[C@H]3N)[C@@H](N)C[C@H]2N)OC[C@]1(C)O [Sisomicin, reference compound]: 0.5
- CNCC1=CC[C@@H](N)[C@@H](O[C@H]2C(O)[C@@H](O[C@H]3OC[C@](C)(O)[C@H](NC)[C@H]3O)[C@H](N)C[C@@H]2N)O1 (stereo partly shown) [Mono-substituted Compound 1, reference compound]: 1
- CN[C@@H]1[C@@H](O)[C@@H](O[C@@H]2C(O)[C@H](O[C@H]3OC(CNCC4CC4)=CC[C@H]3N)[C@@H](N)C[C@H]2N)OC[C@]1(C)O (stereo partly shown) [Mono-substituted Compound 2, reference compound]: 1
- CN[C@@H]1[C@@H](O)[C@@H](O[C@@H]2[C@@H](O)[C@H](O[C@H]3OC(CNCCO)=CC[C@H]3N)[C@@H](N)C[C@H]2NC(=O)[C@@H](O)CCN)OC[C@]1(C)O: 0.5
- CN[C@@H]1[C@@H](O)[C@@H](O[C@@H]2[C@@H](O)[C@H](O[C@H]3OC(CNCC4CC4)=CC[C@H]3N)[C@@H](N)C[C@H]2NC(=O)[C@@H](O)CN)OC[C@]1(C)O: 1
- CN[C@@H]1[C@@H](O)[C@@H](O[C@@H]2[C@@H](O)[C@H](O[C@H]3OC(CNCC4CC4)=CC[C@H]3N)[C@@H](N)C[C@H]2NC(=O)[C@@H](O)CCN)OC[C@]1(C)O: 1
- CN[C@@H]1[C@@H](O)[C@@H](O[C@@H]2[C@@H](O)[C@H](O[C@H]3OC(CNCCO)=CC[C@H]3N)[C@@H](N)C[C@H]2NC(=O)[C@@H](O)CN)OC[C@]1(C)O: 1
- CN[C@@H]1[C@@H](O)[C@@H](O[C@@H]2[C@@H](O)[C@H](O[C@H]3OC(CNCCCN)=CC[C@H]3N)[C@@H](N)C[C@H]2NC(=O)[C@@H](O)CN)OC[C@]1(C)O: 1
- CN[C@@H]1[C@@H](O)[C@@H](O[C@@H]2C(O)[C@H](O[C@H]3OC(CNCCCN)=CC[C@H]3N)[C@@H](N)C[C@H]2N)OC[C@]1(C)O (stereo partly shown) [Mono-substituted Compound 4, reference compound]: 2
- CN[C@@H]1[C@@H](O)[C@@H](O[C@@H]2[C@@H](O)[C@H](O[C@H]3OC(CNCC4CCNCC4)=CC[C@H]3N)[C@@H](N)C[C@H]2NC(=O)[C@@H](O)CCN)OC[C@]1(C)O: 1
- CN[C@@H]1C(O)[C@@H](O[C@@H]2[C@@H](O)[C@H](OC3OC(CN)=CC[C@H]3N)[C@@H](N)C[C@H]2NC(=O)[C@@H](O)CCN)OC[C@]1(C)O (stereo partly shown) [Mono-substituted Compound 6, reference compound]: 0.5
